Values compiled from PubChem BioAssay (NCI).

Exercise: for every item that follows, state its recorded TGI.
- Test system: LOX IMVI melanoma
- Experimental details: NCI tumour cell line growth inhibition, 48 h
Give bare numbers, in µM.

>  <Smiles record>
COc1cc(/C=C/c2cc(/C=C/c3ccc(O)c(OC)c3)n(C(=O)Nc3ccc(F)c(Cl)c3)n2)ccc1O

>  <TGI (µM)>
1.85

$$$$

Could you report TGI for every entry in the following list?
1. Clc1nc(Cl)c(Cl)c(-c2ccccc2)n1
2. CN1C/C=C\CCOc2cccc(c2)-c2ccnc(n2)Nc2cccc(c2)C1

Result:
5.59
1.06

* * *

Exercise: for every item that follows, state its recorded TGI.
- Test system: CAKI-1 renal
- Experimental details: NCI tumour cell line growth inhibition, 48 h

>  <Compound>
COc1cc(C(C)O)c[n+](CCc2c[nH]c3ccccc23)c1 (stereo not given)

>  <TGI>
> 100 µM

$$$$
>  <Compound>
CN1CCN(CCCOc2ccc3nc(Nc4ccc(Cl)c(C(F)(F)F)c4)ccc3c2)CC1

>  <TGI>
28.4 µM

$$$$
>  <Compound>
COC1=C(C)C(=O)c2c(c(COC(N)=O)c3n2CC2C3N2C)C1=O (stereo not given)

>  <TGI>
0.059 µM

$$$$

Could you report TGI for every entry in the following list?
1. COc1ccccc1CCc1cc(OC)c(OC)c(OC)c1
2. Cc1ccc(C(=O)CN(/C=C/C(=O)C(F)(F)F)c2ccc(S(N)(=O)=O)cc2)cc1
3. COc1cc(/C=C/c2cc(/C=C/c3ccc(O)c(OC)c3)n(C(=O)Nc3ccc(F)c(Cl)c3)n2)ccc1O
4. C=CCCN1CCc2c([nH]c3ccccc23)C1C(=O)O (stereo not given)
5. CSc1ncnc2c1ncn2C1CC(Oc2ccc(C)cc2)C(COc2ccc(C)cc2)O1 (stereo not given)

Result:
1: > 100 µM; 2: > 100 µM; 3: 4.92 µM; 4: > 100 µM; 5: > 100 µM
